The values you see were collected from patent US6891043B2.

test target: FAAH (Rattus norvegicus, UniProt P97612)
Construct: using a solubilized liver plasma membrane extract containing FAAH
Sequence (P97612 whole entry): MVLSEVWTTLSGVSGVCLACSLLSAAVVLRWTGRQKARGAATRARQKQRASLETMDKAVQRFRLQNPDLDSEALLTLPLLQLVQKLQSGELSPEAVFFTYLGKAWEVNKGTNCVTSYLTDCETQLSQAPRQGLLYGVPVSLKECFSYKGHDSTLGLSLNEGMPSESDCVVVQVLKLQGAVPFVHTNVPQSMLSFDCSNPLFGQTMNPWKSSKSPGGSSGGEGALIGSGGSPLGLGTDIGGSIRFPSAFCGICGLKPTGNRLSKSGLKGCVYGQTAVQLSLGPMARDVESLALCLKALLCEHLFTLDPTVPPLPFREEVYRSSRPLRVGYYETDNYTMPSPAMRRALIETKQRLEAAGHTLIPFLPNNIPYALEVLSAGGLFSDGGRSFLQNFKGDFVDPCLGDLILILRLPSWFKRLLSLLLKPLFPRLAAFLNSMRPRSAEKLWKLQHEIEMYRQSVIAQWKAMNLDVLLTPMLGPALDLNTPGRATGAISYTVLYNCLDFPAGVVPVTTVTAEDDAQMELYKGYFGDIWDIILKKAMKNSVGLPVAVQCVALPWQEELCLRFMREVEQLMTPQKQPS
procedure summary: FAAH inhibition: breakdown of 14C-oleamide to oleic acid, solubilized liver plasma membrane extract
test conditions: Dixon method, 14C-oleamide substrate, pH 9.0, 20-23° C.; read-out: K1
readout label: Ki (µM)
Report only the number, with the unit µM understood.

## Input Look up Ki with FAAH (Rattus norvegicus, UniProt P97612) for this compound: CCCCCCCCCCCC(O)c1nc2ncccc2o1 (centres unmarked)
## Output 1.2
